test: qHTS of small molecules that selectively kill Giardia lamblia: Hit Validation.;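 note: viability measured as ATP content by luminescence so killing lowers signal; trophozoites exposed to compounds for 48 h anaerobically at 37 °C; nearly all actives have a fitted effect of over 65% in size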; settings: Giardia lamblia trophozoite viability, dose-response; series mostly up to 38.3 µM
In all, about 1,300 compounds went through this assay and about 1,000 (77%) were called active. Another 7% or so got no clear call; they are omitted. Calls come from the whole dose curve; as a rule, active = well fitted inhibition curve with a large enough effect; inconclusive = small, poorly fitted or top-dose-only effect; inactive = no such curve, though single readings can be large or run the other way. The set was probably picked from earlier hits. This is one part of the list.
Thanks in advance; please answer with one of these: active, inactive

Consider the worked cases shown below.
1) CCN(C(=O)C1CCN(S(=O)(=O)c2ccc3c(c2)oc(=O)n3C)CC1)c1cccc(C)c1 : inactive
2) CCCCCN=Cc1c(C)[nH]n(-c2nc3ccccc3s2)c1=O : active
3) COc1cc(CNc2nnnn2C)cc(OC)c1OC : inactive

Identify the outcome logged in this assay for the compound shown: COc1ccccc1C(=O)NC(=O)OCCn1c(C)cnc1[N+](=O)[O-]
active

Identify the outcome logged in this assay for the compound shown: O=[N+]([O-])c1ccc2nc(CO)[nH]c2c1
active

Identify the outcome logged in this assay for the compound shown: COc1ccc(CCNC(=O)C23CCC(C)(C(=O)C2=O)C3(C)C)cc1OC (stereo unspecified)
inactive

Identify the outcome logged in this assay for the compound shown: COc1ccc(CCNC(=O)CSc2ccsc2[N+](=O)[O-])cc1OC
active

Identify the outcome logged in this assay for the compound shown: COc1ccc(OC)c(CCNC(=O)CSc2ccsc2[N+](=O)[O-])c1
active

Identify the outcome logged in this assay for the compound shown: CCc1nc2cc([N+](=O)[O-])c([N+](=O)[O-])cc2[nH]1
active

Identify the outcome logged in this assay for the compound shown: Cc1cnc([N+](=O)[O-])n1CCOC(=O)NC(=O)c1ccccc1Cl
active

Identify the outcome logged in this assay for the compound shown: NCCCn1c(C(=O)c2cc(Cl)c(N)c(Cl)c2)c2ccccc2[n+]1[O-]
active

###

experiment: qHTS of small molecules that selectively kill Giardia lamblia: Hit Validation.;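 note: viability measured as ATP content by luminescence so killing lowers signal; trophozoites exposed to compounds for 48 h anaerobically at 37 °C; nearly all actives have a fitted effect of over 65% in size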; conditions: Giardia lamblia trophozoite viability, dose-response; series mostly up to 38.3 µM
In all, about 1,300 compounds went through this assay and about 1,000 (77%) were called active. About 7% were inconclusive and are not listed. Calls follow the shape of the dose curve; as a rule, active = well fitted inhibition curve with a large enough effect; inconclusive = small, poorly fitted or top-dose-only effect; inactive = no such curve, though single readings can be large or run the other way. The set was probably picked from earlier hits. This is one part of the list.
Thanks in advance; please answer with one of these: active, inactive

1) CC1CCN(c2ccc(-c3ccc(NC(=O)C(F)(F)F)cc3)nn2)CC1 : active
2) CCC(=O)N1CCN(c2ccc(NC(=O)c3ccc([N+](=O)[O-])o3)cc2Cl)CC1 : active
3) CCOC(=O)CN1C(=O)S/C(=C/c2cccc([N+](=O)[O-])c2O)C1=O : active
4) COc1ccc(OCc2cc(C(=O)N(C)Cc3cc(C4CC4)n[nH]3)no2)c(Cl)c1 : inactive
5) NC(=O)c1ccc(NC(=O)COc2ccc([N+](=O)[O-])cc2Cl)cc1 : active

Identify the outcome logged in this assay for the molecule shown: CN1CCN(c2ccc(NC(=O)c3ccc4c(c3)OCCO4)cc2Cl)CC1
active

Identify the outcome logged in this assay for the molecule shown: CCN1CCN(c2ccc(NC(=O)c3ccc([N+](=O)[O-])o3)cc2Cl)CC1
active

Identify the outcome logged in this assay for the molecule shown: CC(=O)Nc1ccc(S(=O)(=O)NCCC(=O)N2CCN(c3ccccc3Cl)CC2)cc1
inactive

Identify the outcome logged in this assay for the molecule shown: Cc1cccc(NC(=O)CN2C(=O)S/C(=C\c3ccc(O)c([N+](=O)[O-])c3)C2=O)c1
active

Identify the outcome logged in this assay for the molecule shown: CC1CC(C)C(=NNC(N)=O)C(C(O)CC2CCC(=O)NC2=O)C1 (stereo not given)
active
